Origin of values: paper PMC10140010

tested on: OAT3; assay: Uptake inhibitor investigation in HEK293 cells expressing transporter; assay type: in vitro ADME; details: human, HEK293 cells expressing OAT3, probe ATV, 1 μM; read-out: Inhibition rate
READOUT: inhibition at 0.5 μM (%)

> print(dat)
                               query.smiles  system  u  observed.measurement
1  COc1cc(N2CCC3(CCN(C)CC3)CC2)ccc1Nc1ncc(Cl)c(Nc2ccccc2P(C)(C)=O)n1    OAT3  %                  26.7

---

target: UniProt:P35968; assay: Z'-LYTE kinase selectivity; assay type: biochemical
Sequence (P35968 20-1356): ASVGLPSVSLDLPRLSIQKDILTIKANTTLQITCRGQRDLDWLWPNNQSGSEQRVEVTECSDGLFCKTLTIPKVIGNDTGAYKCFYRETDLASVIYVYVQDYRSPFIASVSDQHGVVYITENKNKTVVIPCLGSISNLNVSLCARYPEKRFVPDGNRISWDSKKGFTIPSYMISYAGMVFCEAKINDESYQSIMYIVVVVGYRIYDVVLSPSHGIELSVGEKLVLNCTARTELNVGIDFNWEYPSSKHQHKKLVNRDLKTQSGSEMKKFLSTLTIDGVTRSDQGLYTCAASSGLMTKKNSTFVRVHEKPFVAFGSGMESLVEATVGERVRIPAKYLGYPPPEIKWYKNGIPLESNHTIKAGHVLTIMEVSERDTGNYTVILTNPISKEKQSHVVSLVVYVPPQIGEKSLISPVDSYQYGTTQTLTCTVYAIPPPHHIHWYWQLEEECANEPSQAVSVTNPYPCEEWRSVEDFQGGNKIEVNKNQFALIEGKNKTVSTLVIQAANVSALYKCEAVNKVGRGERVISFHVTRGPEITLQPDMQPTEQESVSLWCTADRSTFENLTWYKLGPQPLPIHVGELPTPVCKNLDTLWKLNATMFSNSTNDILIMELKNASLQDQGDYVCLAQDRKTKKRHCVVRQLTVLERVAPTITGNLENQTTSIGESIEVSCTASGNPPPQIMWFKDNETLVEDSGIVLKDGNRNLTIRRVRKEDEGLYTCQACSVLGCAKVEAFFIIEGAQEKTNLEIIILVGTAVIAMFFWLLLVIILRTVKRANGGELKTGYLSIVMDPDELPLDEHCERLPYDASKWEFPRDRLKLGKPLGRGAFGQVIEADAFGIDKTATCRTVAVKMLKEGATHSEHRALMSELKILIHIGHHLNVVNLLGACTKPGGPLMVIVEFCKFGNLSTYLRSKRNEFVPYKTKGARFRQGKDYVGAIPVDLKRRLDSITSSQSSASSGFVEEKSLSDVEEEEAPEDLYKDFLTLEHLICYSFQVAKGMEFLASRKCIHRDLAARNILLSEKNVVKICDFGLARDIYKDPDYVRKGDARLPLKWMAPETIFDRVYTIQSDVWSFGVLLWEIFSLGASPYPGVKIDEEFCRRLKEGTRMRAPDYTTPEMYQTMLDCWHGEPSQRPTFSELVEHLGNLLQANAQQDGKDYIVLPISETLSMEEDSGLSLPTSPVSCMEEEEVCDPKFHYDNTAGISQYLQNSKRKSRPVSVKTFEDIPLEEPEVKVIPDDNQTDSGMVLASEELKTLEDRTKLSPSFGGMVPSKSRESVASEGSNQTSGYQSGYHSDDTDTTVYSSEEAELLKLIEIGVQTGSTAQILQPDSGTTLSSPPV
READOUT: IC50

> print(dat)
                                   compound  observed.measurement
1  COc1cc(N2CCC(N3CCN(C)CC3)CC2)ccc1Nc1ncc(Cl)c(Nc2ccccc2P(C)(C)=O)n1 [Brigatinib, reference compound]                178 nM

---

Molecular target: BCRP (Homo sapiens)
Sequence (Q9UNQ0 1-655): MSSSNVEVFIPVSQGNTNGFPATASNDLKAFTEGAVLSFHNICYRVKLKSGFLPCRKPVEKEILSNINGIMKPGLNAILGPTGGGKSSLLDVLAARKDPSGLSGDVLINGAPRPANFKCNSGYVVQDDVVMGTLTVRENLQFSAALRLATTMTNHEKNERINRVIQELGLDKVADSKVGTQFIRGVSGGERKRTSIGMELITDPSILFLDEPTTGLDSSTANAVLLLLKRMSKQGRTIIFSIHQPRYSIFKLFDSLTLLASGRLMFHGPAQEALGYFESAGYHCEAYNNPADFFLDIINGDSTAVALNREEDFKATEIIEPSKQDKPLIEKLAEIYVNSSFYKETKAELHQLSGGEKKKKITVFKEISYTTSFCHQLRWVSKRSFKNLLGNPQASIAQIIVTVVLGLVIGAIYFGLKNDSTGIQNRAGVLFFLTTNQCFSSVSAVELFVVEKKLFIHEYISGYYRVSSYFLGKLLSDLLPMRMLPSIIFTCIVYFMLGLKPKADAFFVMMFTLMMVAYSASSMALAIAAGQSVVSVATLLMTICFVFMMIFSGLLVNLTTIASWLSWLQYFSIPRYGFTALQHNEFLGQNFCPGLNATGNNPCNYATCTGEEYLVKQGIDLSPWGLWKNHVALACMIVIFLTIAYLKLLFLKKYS
Assay: ABC efflux transporter inhibitor test on Caco-2 cells (E3S efflux)
Conditions: human, Caco-2 cells, probe E3S (10 µM)
READOUT: inhibition at 0.1 μM (%)

> print(dat)
                                   molecule  observed.measurement
1  COc1cc(N2CCC3(CCN(C)CC3)CC2)ccc1Nc1ncc(Cl)c(Nc2ccccc2P(C)(C)=O)n1 [Iruplinalkib]                 -11.1

---

target: MRP2 (Homo sapiens); construct: host or cells: membrane vesicles ('Membrane capsule'), MRP2 versus NC control, with ATP or AMP; experiment: MRP2 inhibitor investigation; type: in vitro ADME; details: probe CDCF; MRP2; substrate CDCF 5 μM; inhibitor 30 μM; read-out: Inhibition rate
Sequence (Q92887 whole entry): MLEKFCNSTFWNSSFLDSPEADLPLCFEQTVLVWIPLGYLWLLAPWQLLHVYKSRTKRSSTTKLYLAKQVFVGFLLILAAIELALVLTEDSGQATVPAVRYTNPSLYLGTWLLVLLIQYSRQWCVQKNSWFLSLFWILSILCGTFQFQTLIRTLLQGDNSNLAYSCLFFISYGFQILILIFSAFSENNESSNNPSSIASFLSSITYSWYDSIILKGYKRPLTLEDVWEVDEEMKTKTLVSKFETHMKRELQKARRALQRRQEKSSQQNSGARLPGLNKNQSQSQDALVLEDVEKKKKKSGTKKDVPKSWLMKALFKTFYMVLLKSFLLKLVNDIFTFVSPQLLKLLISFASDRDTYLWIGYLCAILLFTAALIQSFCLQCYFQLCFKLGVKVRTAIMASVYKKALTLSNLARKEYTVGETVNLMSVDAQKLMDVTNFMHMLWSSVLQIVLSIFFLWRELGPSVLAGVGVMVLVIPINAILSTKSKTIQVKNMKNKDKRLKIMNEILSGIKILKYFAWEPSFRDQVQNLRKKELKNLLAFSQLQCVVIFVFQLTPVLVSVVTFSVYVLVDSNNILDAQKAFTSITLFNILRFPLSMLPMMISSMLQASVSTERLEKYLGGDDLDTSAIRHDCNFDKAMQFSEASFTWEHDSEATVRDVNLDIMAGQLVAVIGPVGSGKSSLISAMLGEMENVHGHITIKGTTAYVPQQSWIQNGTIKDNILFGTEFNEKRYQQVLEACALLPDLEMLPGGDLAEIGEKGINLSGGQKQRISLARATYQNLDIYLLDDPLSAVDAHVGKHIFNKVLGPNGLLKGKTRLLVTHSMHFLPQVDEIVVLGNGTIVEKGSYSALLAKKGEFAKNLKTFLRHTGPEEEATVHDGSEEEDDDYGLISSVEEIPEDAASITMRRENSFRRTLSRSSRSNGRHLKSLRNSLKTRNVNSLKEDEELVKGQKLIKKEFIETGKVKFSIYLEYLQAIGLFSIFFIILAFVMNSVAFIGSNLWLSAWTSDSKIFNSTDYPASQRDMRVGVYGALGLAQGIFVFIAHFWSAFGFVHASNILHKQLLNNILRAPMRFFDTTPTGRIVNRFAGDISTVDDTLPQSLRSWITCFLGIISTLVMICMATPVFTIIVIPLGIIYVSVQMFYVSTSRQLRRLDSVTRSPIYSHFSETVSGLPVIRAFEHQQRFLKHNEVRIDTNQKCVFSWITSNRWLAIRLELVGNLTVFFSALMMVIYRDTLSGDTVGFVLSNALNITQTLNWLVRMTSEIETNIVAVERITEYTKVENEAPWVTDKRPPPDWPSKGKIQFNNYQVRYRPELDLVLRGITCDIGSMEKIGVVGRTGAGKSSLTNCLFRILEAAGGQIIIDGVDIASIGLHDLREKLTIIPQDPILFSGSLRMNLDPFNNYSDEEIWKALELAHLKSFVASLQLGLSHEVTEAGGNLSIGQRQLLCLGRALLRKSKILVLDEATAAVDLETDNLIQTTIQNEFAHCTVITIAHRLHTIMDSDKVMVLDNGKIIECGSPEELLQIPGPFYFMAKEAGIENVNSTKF
READOUT: inhibition at 30 μM

> print(dat)
                               query.smiles  observed.measurement
1  COc1cc(N2CCC3(CCN(C)CC3)CC2)ccc1Nc1ncc(Cl)c(Nc2ccccc2P(C)(C)=O)n1                 -2.8%
